# ASSAYED TARGET: α-7 nicotinic acetylcholine receptor channel expressed in HEK 293 cells (Rattus norvegicus, UniProt Q05941)
# Construct: expressed in transfected cells
# Sequence (Q05941 23-502): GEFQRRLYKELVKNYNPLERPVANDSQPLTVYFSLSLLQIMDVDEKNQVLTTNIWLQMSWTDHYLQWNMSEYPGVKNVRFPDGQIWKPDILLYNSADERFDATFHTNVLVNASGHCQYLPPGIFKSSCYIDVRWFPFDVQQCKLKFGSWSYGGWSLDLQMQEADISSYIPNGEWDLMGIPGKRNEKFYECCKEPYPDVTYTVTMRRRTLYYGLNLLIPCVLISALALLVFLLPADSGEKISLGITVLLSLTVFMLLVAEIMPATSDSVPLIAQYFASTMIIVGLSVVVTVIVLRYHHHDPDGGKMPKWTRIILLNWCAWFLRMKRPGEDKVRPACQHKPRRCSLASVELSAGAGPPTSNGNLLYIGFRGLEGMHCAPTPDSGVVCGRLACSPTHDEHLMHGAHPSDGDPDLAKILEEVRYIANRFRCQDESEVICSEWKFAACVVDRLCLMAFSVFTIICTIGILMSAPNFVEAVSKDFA
# EXPERIMENTAL PROTOCOL: Ca2+-sensitive fluorescence-based FLIPR assay, α7 nicotinic ACh receptor channel function (agonist)
# Type: cell-based
# PROTOCOL CONDITIONS: FLIPR α7 activity rating (EC50, nM), Table 1; HEK 293 cells, agonist Ca2+ flux
EC50 overview
EXPERIMENTAL ENDPOINT: EC50

>>> print(df.to_string())
                                   molecule  experimental_endpoint        assay_value
0  Cn1ccc(NC2=NC[C@@]3(CN4CCC3CC4)O2)n1 [Example 190]                   EC50  1000 to 100000 nM
1  FC(F)Oc1ccc2nc(NC3=NC[C@@]4(CN5CCC4CC5)O3)sc2n1 [Example 32]                   EC50     100 to 1000 nM
2  Clc1ccc2nc(NC3=NCC4(CN5CCC4CC5)O3)sc2c1 (centres unmarked) [Example 9]                   EC50     100 to 1000 nM
3  COc1ccc2nc(NC3=NCC4(CN5CCC4CC5)O3)sc2n1 (single isomer, unassigned) [Example 2b]                   EC50     100 to 1000 nM
4  CC(C)Oc1cnc(NC2=NC[C@@]3(CN4CCC3CC4)O2)cn1 [Example 216]                   EC50  1000 to 100000 nM

====

# ASSAYED TARGET: α-7 nicotinic acetylcholine receptor channel expressed in HEK 293 cells (Rattus norvegicus)
# Construct: expressed in transfected cells
# EXPERIMENTAL PROTOCOL: Ca2+-sensitive fluorescence-based FLIPR assay, α7 nicotinic ACh receptor channel function (agonist)
# Type: cell-based
# PROTOCOL CONDITIONS: read-out: FLIPR α7 activity rating (EC50); Table 1; HEK 293 cells, agonist Ca2+ flux
pEC50: −log10 of the molar value.
EXPERIMENTAL ENDPOINT: pEC50

In [3]: df
Out[3]:
                                   molecule  experimental_endpoint   assay_value
0  COc1ccc(-c2csc(NC3=NCC4(CN5CCC4CC5)O3)n2)cc1 (single isomer, unassigned) [Example 20b]                  pEC50  6.00 to 7.00

====

Recorded EC50 by entry
# ASSAYED TARGET: α-7 nicotinic acetylcholine receptor channel expressed in HEK 293 cells (Rattus norvegicus, UniProt Q05941)
# Construct: expressed in transfected cells
# EXPERIMENTAL PROTOCOL: Ca2+-sensitive fluorescence-based FLIPR assay, α7 nicotinic ACh receptor channel function (agonist)
# Type: cell-based
# PROTOCOL CONDITIONS: FLIPR α7 activity rating (EC50, nM), Table 1; HEK 293 cells, agonist Ca2+ flux
EXPERIMENTAL ENDPOINT: EC50

In [3]: df
Out[3]:
                                    compound        assay_value
 0  c1nc2ccc(NC3=NCC4(CN5CCC4CC5)O3)cc2s1 (stereo not drawn)  1000 to 100000 nM
 1  COc1cccc(-c2csc(NC3=NC[C@@]4(CN5CCC4CC5)O3)n2)c1     100 to 1000 nM
 2  Fc1ccc2nc(NC3=NCC4(CN5CCC4CC5)O3)[nH]c2c1 (stereo not drawn)     100 to 1000 nM
 3    Brc1ccc(NC2=NC[C@@]3(CN4CCC3CC4)O2)nc1           < 100 nM
 4  Cc1cc(C)c2c(NC3=NCC4(CN5CCC4CC5)O3)nsc2n1 (racemic)     100 to 1000 nM
 5  COc1ccc2nc(NC3=NC[C@@]4(CN5CCC4CC5)O3)cnc2c1           < 100 nM
 6  Fc1cccc2sc(NC3=NCC4(CN5CCC4CC5)O3)nc12 (stereo not drawn)           < 100 nM
 7  c1cncc(/N=C2\NCC3(CN4CCC3CC4)O2)c1 (racemic)  1000 to 100000 nM
 8  c1ccn2nc(NC3=NCC4(CN5CCC4CC5)O3)nc2c1 (stereo not drawn)           < 100 nM
 9  c1ccc2sc(NC3=NCC4(CN5CCC4CC5)O3)nc2c1 (single isomer, unassigned) [Example 1b]           < 100 nM
10  O=C(c1ccc2nc(NC3=NCC4(CN5CCC4CC5)O3)sc2c1)N1CCCCC1 (stereo not drawn)  1000 to 100000 nM
11    N#Cc1cnc(NC2=NC[C@@]3(CN4CCC3CC4)O2)s1     100 to 1000 nM
12  Clc1ccc2nc(NC3=NCC4(CN5CCC4CC5)O3)sc2c1 (single isomer, unassigned) [Example 9b]           < 100 nM
13  c1csc(-c2cc(NC3=NC[C@@]4(CN5CCC4CC5)O3)n[nH]2)c1     100 to 1000 nM
14     CCc1nnc(NC2=NC[C@@]3(CN4CCC3CC4)O2)o1  1000 to 100000 nM
15    CSc1cc(NC2=NC[C@@]3(CN4CCC3CC4)O2)ncn1           < 100 nM
16  Clc1ccc2nc(NC3=NC[C@@]4(CN5CCC4CC5)O3)sc2n1           < 100 nM
17  O=C1CCCN1c1cnc(NC2=NC[C@@]3(CN4CCC3CC4)O2)cn1  1000 to 100000 nM
